All figures here come from patent US6355799B1.

test system: barnyardgrass (Echinochloa crus-galli, ECHCG); test: Pre-emerge test, greenhouse herbicide activity screening; format: in vivo; settings: 250 g ai/ha; rating scale 0-100, 14 days after application
Value Kind: Pre-emerge herbicidal activity, phytotoxicity rating ECHCG

compound="COc1c(Cl)cc(F)c(-n2c(=O)cc(C(F)(F)F)n(C)c2=O)c1CC(Cl)C(=O)OCC(F)(F)C(F)(F)C(F)(F)F (single isomer, unassigned) [14-23]" value_observed=30
compound="CCOC(=O)C(Br)Cc1c(OC)c(Cl)cc(F)c1-n1c(=O)cc(C(F)(F)F)n(C)c1=O (single isomer, unassigned)" value_observed=0
compound="COc1c(Cl)cc(F)c(-n2c(=O)cc(C(F)(F)F)n(C)c2=O)c1CC(Cl)C(=O)OC(C)(C)C (stereo not shown)" value_observed=20
compound="COc1c(Cl)cc(F)c(-n2c(=O)cc(C(F)(F)F)n(C)c2=O)c1CC(Cl)C(=O)OCCC#N (stereo not shown)" value_observed=0
compound="COc1c(Cl)cc(F)c(-n2c(=O)cc(C(F)(F)F)n(C)c2=O)c1CC(Cl)C(=O)OCCC(C)C (single isomer, unassigned)" value_observed=0
compound=O=C(Nc1cc(Cl)ccc1N1C(=O)c2ccccc2C1=O)c1ccc2ccccc2c1 value_observed=0
compound="COc1c(Cl)cc(F)c(-n2c(=O)cc(C(F)(F)F)n(C)c2=O)c1CC(Cl)C(=O)OCC(F)(F)C(F)(F)C(F)(F)F (single isomer, unassigned) [14-24]" value_observed=0
compound="CCCOC(=O)C(C)(Cl)Cc1c(OC)c(Cl)cc(F)c1-n1c(=O)cc(C(F)(F)F)n(C)c1=O (stereo not shown)" value_observed=99
compound="CCOC(=O)C(Cl)Cc1c(OC)c(Cl)cc(F)c1-n1c(=O)cc(C(F)(F)F)n(C)c1=O (single isomer, unassigned)" value_observed=40
compound="CCCCOC(=O)C(Cl)Cc1c(OC)c(Cl)cc(F)c1-n1c(=O)cc(C(F)(F)F)n(C)c1=O (single isomer, unassigned)" value_observed=70
compound="CCCCCOC(=O)C(Cl)Cc1c(OC)c(Cl)cc(F)c1-n1c(=O)cc(C(F)(F)F)n(C)c1=O (single isomer, unassigned)" value_observed=0
compound=CCOC(=O)CCc1c(OC)c(Cl)cc(F)c1-n1c(=O)cc(C(F)(F)F)n(C)c1=O value_observed=30
compound="COc1c(Cl)cc(F)c(-n2c(=O)cc(C(F)(F)F)n(C)c2=O)c1CC(Cl)C(=O)OCCOc1ccccc1 (single isomer, unassigned)" value_observed=20
